System: db/db mice
Assay: Hypoglycemic action and triglyceride-decreasing action in db/db mice
Type: in vivo
Conditions: Mus musculus, 360 h, 1 mg/kg oral once a day for 2 weeks, plasma glucose on 15th day vs vehicle, read-out: Hypoglycemic rate (%)
Description: Test for Measuring Hypoglycemic Action and Triglyceride-Decreasing Action in db/db Mice Each of test compounds was administered once a day for 2 weeks to db/db mice genetically presenting pathological conditions of obesity, hyperglycemia, and hyperlipidemia. […] Plasma glucose levels and triglyceride levels were measured, and the mice were divided into groups so that average glucose levels and triglyceride levels gave no significant value among the groups. […]
Mark 0.0 for inhibition in vivo at 1 mg/kg values under 30%, and 1.0 for everything at or above.

COMPOUND | TARGET_SYSTEM | CATEGORY_LABEL
CCCCCCCN(CCOc1ccc(CC(OCCC)C(=O)O)cc1)C(=O)OC (stereo not drawn) [Example 120] | db/db mice | 1.0
CCCCCCCN(CCOc1ccc(CC(OCC)C(=O)O)cc1)C(=O)OCC(C)C (stereo not drawn) [Example 71] | db/db mice | 0.0
CCCCOCCN(CCOc1ccc(CC(OC(C)C)C(=O)O)cc1)C(=O)OC(C)C (stereo not drawn) [Example 130] | db/db mice | 1.0
CCCCOCCN(CCOc1ccc(CC(OC(C)C)C(=O)O)cc1)C(=O)OCC(C)C (stereo not drawn) [Example 132] | db/db mice | 0.0
CCCCCCCN(CCOc1ccc(CC(OCC)C(=O)O)cc1)C(=O)OC (stereo not drawn) [Example 56] | db/db mice | 0.0
CCCCCCCN(CCOc1ccc(CC(OC(C)C)C(=O)O)cc1)C(=O)OC(C)C (stereo not drawn) [Example 125] | db/db mice | 1.0
CCCCCCCN(CCOc1ccc(CC(OC(C)C)C(=O)O)cc1)C(=O)OC (stereo not drawn) [Example 118] | db/db mice | 1.0
C#CCOC(=O)N(CCCCCCC)CCOc1ccc(CC(OCC)C(=O)O)cc1 (stereo not drawn) [Example 67] | db/db mice | 0.0
CCCCCCCN(CCOc1ccc(CC(OCC)C(=O)O)cc1)C(=O)OC(C)C (stereo not drawn) [Example 66] | db/db mice | 1.0
